Recorded log10 EC50 by entry
Test system: Human immunodeficiency virus 1
Test: Antiviral activity against HIV1 3B infected in human C8166 cells assessed as cytopathic effect by counting the number of syncytia by microscopy
Type: functional, organism-based
Details: Human immunodeficiency virus 1, 3B
Please keep in mind that the values are log10 of EC50 expressed in µM.

Please review the following examples before continuing.
Query :: # query: log10 EC50 of entry "Cc1ccc(S(=O)(=O)N2CC3(C[C@H]2C(=O)N/N=C/c2ccccc2F)SCCS3)cc1"
Result :: 1.59

Query :: Quick one: log10 EC50 of "Cc1nc2ccccc2n(CC(=O)N/N=C/c2ccccc2)c1=O" ?
Result :: 2.08

Query :: Any idea what its log10 EC50 is? The compound is "COc1ccccc1/C=N/NC(=O)[C@@H]1CC2(CN1S(=O)(=O)c1ccc(C)cc1)SCCS2"
Result :: 1.71

Query :: // returns reported log10 EC50 for input "Cc1ccc(/C=N/NC(=O)[C@@H]2CC3(CN2S(=O)(=O)c2ccc(C)cc2)SCCS3)cc1"
Result :: 1.61

Query :: Suppose we examine the compound "COc1cc(/C=N/NC(=O)[C@@H]2CC3(CN2S(=O)(=O)c2ccc(C)cc2)SCCS3)cc(OC)c1OC" ; what log10 EC50 value has been reported?
Result :: 1.59

Others:
Query :: I have this compound here, "COc1cccc(/C=N/NC(=O)Cn2c(=O)c(C)nc3ccccc32)c1O" , and I need its recorded log10 EC50.
Result :: 0.45

----------
Assay: Therapeutic index, ratio of CC50 for human C8166 cells to EC50 for HIV1 3B infected in human C8166 cells
Format: cell-based
Details: read-out: Ratio CC50/EC50
Each entry below carries its recorded selectivity ratio.

Study these solved cases before continuing.
Query :: Data request, read-out selectivity ratio, for "COc1ccc(/C=N/NC(=O)Cn2c(=O)c(C)nc3ccccc32)c(OC)c1"
Result :: > 4.2

Query :: # get_value(readout='selectivity ratio', item= "C/C(=N\NC(=O)Cn1c(=O)c(C)nc2ccccc21)c1ccc([N+](=O)[O-])cc1" )
Result :: > 3.6

Query :: Endpoint output: selectivity ratio of "Cc1nc2ccccc2n(CC(=O)N/N=C/c2ccccc2)c1=O" . Value?
Result :: > 5.2

Query :: Fill in the blank: the reported selectivity ratio of "Cc1ccc(S(=O)(=O)N2CC3(C[C@H]2C(=O)N/N=C/c2cccc([N+](=O)[O-])c2)SCCS3)cc1" is ____.
Result :: > 24.6

Query :: Which selectivity ratio is reported for this molecule? "COc1cc(/C=N/NC(=O)[C@@H]2CC3(CN2S(=O)(=O)c2ccc(C)cc2)SCCS3)cc(OC)c1OC"
Result :: 8.5

Query :: Which selectivity ratio is listed for "Cc1cn([C@H]2C[C@H](N=[N+]=[N-])[C@@H](CO)O2)c(=O)[nH]c1=O" ?
Result :: 589000

Query :: Return reported selectivity ratio; argument: "COc1cccc(/C=N/NC(=O)Cn2c(=O)c(C)nc3ccccc32)c1O"
Result :: 41.3

Query :: State the recorded selectivity ratio for this entry: "Cc1ccc(S(=O)(=O)N2CC3(C[C@H]2C(=O)N/N=C/c2ccc(N(C)C)cc2)SCCS3)cc1"
Result :: > 10.5

For the next question, use this molecule.
Query :: # get_value(readout='selectivity ratio', item= "Cc1nc2ccccc2n(CC(=O)N/N=C/c2ccco2)c1=O" )
Result :: > 2.1

----------
Assay: Therapeutic index, ratio of CC50 for human C8166 cells to EC50 for HIV1 3B infected in human C8166 cells
Assay type: cell-based
Settings: read-out: Ratio CC50/EC50
assay readout: selectivity ratio

Reference set, count: 3
Query :: Fill in: selectivity ratio of "Cc1nc2ccccc2n(CC(=O)NNC(=O)Cc2ccccc2)c1=O" is ___
Result :: > 1.9

Query :: Given the entry "Cc1ccc(S(=O)(=O)N2CC3(C[C@H]2C(=O)NN)SCCS3)cc1" , report its measured selectivity ratio.
Result :: > 2.2

Query :: Consider the compound shown here: "COc1cc(/C=N/NC(=O)Cn2c(=O)c(C)nc3ccccc32)cc(OC)c1OC" What is its recorded selectivity ratio?
Result :: > 5.9

***
Query :: Given "Cc1nc2ccccc2n(CC(=O)N/N=C/c2ccc(Cl)cc2)c1=O" , state its recorded selectivity ratio.
Result :: > 17.5

Query :: Suppose we examine the compound "COc1ccccc1/C=N/NC(=O)[C@@H]1CC2(CN1S(=O)(=O)c1ccc(C)cc1)SCCS2" ; what selectivity ratio value has been reported?
Result :: 7.6

Query :: Give the measured selectivity ratio of "Cc1nc2ccccc2n(CC(=O)NNC(=O)c2ccc(Cl)cc2)c1=O" .
Result :: > 3.2

----------
System: Human immunodeficiency virus 1
Assay: Antiviral activity against HIV1 3B infected in human C8166 cells assessed as cytopathic effect by counting the number of syncytia by microscopy
Assay type: functional, organism-based
Details: Human immunodeficiency virus 1, 3B
Readings of EC50 for the listed molecules

Example entries and their recorded answers appear below.
Query :: Please give the measured EC50 for this molecule: "C/C(=N\NC(=O)Cn1c(=O)c(C)nc2ccccc21)c1ccccc1Cl"
Result :: > 543 µM

Query :: For "C/C(=N\NC(=O)Cn1c(=O)c(C)nc2ccccc21)c1ccc(Cl)cc1" , what is its reported EC50?
Result :: > 543 µM

Moving on to the next molecule.
Query :: What EC50 value was documented for this molecule, "C/C(=N\NC(=O)Cn1c(=O)c(C)nc2ccccc21)c1cccc(Cl)c1" ?
Result :: > 543 µM

----------
Tested on: Human immunodeficiency virus 1
Experiment: Antiviral activity against HIV1 3B infected in human C8166 cells assessed as cytopathic effect by counting the number of syncytia by microscopy
Assay type: functional, organism-based
Conditions: Human immunodeficiency virus 1, 3B
pEC50: −log10 of the molar value.
Please use label 1 whenever pEC50 is not below 4, and label 0 whenever it is.

Solved cases below.
Query :: Can "Cc1nc2ccccc2n(CC(=O)NN)c1=O" be said to have pEC50 at or above 4?
Result :: label 0

Query :: Is pEC50 for "Cc1nc2ccccc2n(CC(=O)N/N=C/c2ccc(N(C)C)cc2)c1=O" at or above 4?
Result :: label 0

Query :: Is pEC50 at least 4? Consider "C/C(=N\NC(=O)Cn1c(=O)c(C)nc2ccccc21)c1ccc([N+](=O)[O-])cc1"
Result :: label 0

Others:
Query :: Identify whether the reported pEC50 of the following molecule is 4 or greater: "Cc1ccc(S(=O)(=O)N2CC3(C[C@H]2C(=O)N/N=C/c2ccccc2[N+](=O)[O-])SCCS3)cc1"
Result :: label 1

Query :: // inclusive: pEC50 at least 4? input: "Cc1nc2ccccc2n(CC(=O)N/N=C/c2ccco2)c1=O"
Result :: label 0

----------
Entries annotated with measured selectivity ratio
Assay: Therapeutic index, ratio of CC50 for human C8166 cells to EC50 for HIV1 3B infected in human C8166 cells
Type: cell-based
Conditions: read-out: Ratio CC50/EC50
Reply: number alone, nothing else.

Query :: Can you look up the measured selectivity ratio of "C/C(=N\NC(=O)Cn1c(=O)c(C)nc2ccccc21)c1ccccc1" for me?
Result :: 8.9

Alright, here's another compound for you.
Query :: selectivity ratio for "Cc1ccc(S(=O)(=O)N2CC3(C[C@H]2C(=O)N/N=C/c2ccccc2Br)SCCS3)cc1" ?
Result :: 6.3

----------
Test system: Human immunodeficiency virus 1
Assay: Antiviral activity against HIV1 3B infected in human C8166 cells assessed as cytopathic effect by counting the number of syncytia by microscopy
Assay type: functional, organism-based
Settings: Human immunodeficiency virus 1, 3B
Lab note - cut at 30 µM for EC50: label 1 if strictly below, label 0 if not.

Previously resolved entries follow.
Query :: Field: below-cutoff. Rule: recorded EC50 strictly less than 30 µM. Subject: Cc1cn([C@H]2C[C@H](N=[N+]=[N-])[C@@H](CO)O2)c(=O)[nH]c1=O [ZIDOVUDINE]
Result :: label 1

Query :: EC50 strictly < 30 µM for this compound? "Cc1nc2ccccc2n(CC(=O)NNC(=O)c2ccc(Cl)cc2)c1=O"
Result :: label 0

Query :: Lab note: confirm whether the reported EC50 for this compound is below 30 µM, equality not counting. compound: "CC(=O)NNC(=O)Cn1c(=O)c(C)nc2ccccc21"
Result :: label 0

Next:
Query :: Determine if "Cc1nc2ccccc2n(CC(=O)N/N=C/Cc2ccccc2)c1=O" shows EC50 strictly lower than 30 µM.
Result :: label 0

Query :: A record lists "Cc1nc2ccccc2n(CC(=O)NNC(=O)Cc2ccccc2)c1=O" . Is its EC50 below 30 µM?
Result :: label 0

Query :: For "Cc1ccc(S(=O)(=O)N2CC3(C[C@H]2C(=O)NN)SCCS3)cc1" , is the recorded EC50 below the cut-off of 30 µM?
Result :: label 0

Query :: Is the reported EC50 for "C/C(=N\NC(=O)Cn1c(=O)c(C)nc2ccccc21)c1ccccc1" strictly below 30 µM?
Result :: label 0

Query :: Hello, is EC50 of the following compound strictly smaller than 30 µM? "Cc1ccc(S(=O)(=O)N2CC3(C[C@H]2C(=O)N/N=C/c2ccccc2Br)SCCS3)cc1"
Result :: label 1

Query :: Is EC50 strictly under 30 µM for the entry "Cc1nc2ccccc2n(CC(=O)N/N=C/c2ccc(Cl)cc2)c1=O" ?
Result :: label 0
